target or test system: PD-L1 (antigen of the kinetic measurements) (human, UniProt Q9NZQ7)
Sequence (Q9NZQ7 19-238 limits assumed): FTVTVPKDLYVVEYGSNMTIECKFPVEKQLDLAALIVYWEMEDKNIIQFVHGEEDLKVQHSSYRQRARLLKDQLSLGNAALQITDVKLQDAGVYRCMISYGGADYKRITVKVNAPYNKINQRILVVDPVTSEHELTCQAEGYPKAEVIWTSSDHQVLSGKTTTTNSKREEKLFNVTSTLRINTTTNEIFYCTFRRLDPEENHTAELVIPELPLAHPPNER
experiment notes: kinetic measurements for aPDL1 antibodies; instrument and antigen format not stated
outcome measure: Kd (nM)
Report the figure in nM without appending any unit label.

-- ask Supply reported Kd belonging to this binder: 1F1 (antibody, V domains shown, anti-PD-L1 clone; also called Ab 1F1) VH: QVQLVQSGGEVKKPGASVKVSCKASGYTLSSHGITWVRQAPGQGLEWMGWISAHNGHASNAQKVEDRVTMTTDTSTNTAYMELRSLTPDDTAVYYCARVHAALYYGMDVWGQGTLVTVSS VL: QPVLTQPPSVSVAPGQTARITCGGDNIGSKGVHWLQQKPGQAPVLVVYDDRDRPSGIPERFSGSNSGSTATLTISRVEAGDEADYYCQVWDSSSDHWVFGGGTKLTVL
-- reply 0.461

-- ask Supply reported Kd belonging to this binder: 1B4 (antibody, V domains shown, anti-PD-L1 clone; also called Ab 1B4) VH: QVQLVQSGGGLVKPGGSLRLSCVGSDFAFSSAWMNWVRQAPGKGLEWVGRIKSKTDGETTDYAAPVKDRFIISRDDSKNTLYLEMNSLKTEDTGVYYCTTGGLGLVYPYYNYIDVWGEGTTVTVSS VL: LPVLTQPPSASGTPGQRVTISCSGSSSNIGSNYVYWYQQLPGTAPKLLIYRNNQRPSGVPDRFSGSKSGTSASLAISGLRSEDEADYYCAAWDDSLNGLVFGTGTRVTVL
-- reply 0.669

-- ask Supply reported Kd belonging to this binder: 14C61 (antibody, V domains shown, anti-PD-L1 clone; also called Ab 14C61) VH: EVQLVQSGGEVKKPGASVKVSCKASGYTLSSHGITWVRQAPGQGLEWMGWISAHNGHASNAQKVEDRVTMTTDTSTNTAYMELRSLTPDDTAVYYCARVHAALYYGMDVWGQGTLVTVSS VL: SYELTQPPSVSVAPRQTAKITCTRDNIESRSVNWYQQRAGQAPAVIVYDDTERPSGITVRYSGSNSGNTATLTISRVEAGDEADYYCQVWDSSGDLWVFGGGTKLTVL
-- reply 1.91

From: patent US20230127123A1
